Biological target: SHP2 protein (Homo sapiens, UniProt Q06124)
Sequence (Q06124 whole entry): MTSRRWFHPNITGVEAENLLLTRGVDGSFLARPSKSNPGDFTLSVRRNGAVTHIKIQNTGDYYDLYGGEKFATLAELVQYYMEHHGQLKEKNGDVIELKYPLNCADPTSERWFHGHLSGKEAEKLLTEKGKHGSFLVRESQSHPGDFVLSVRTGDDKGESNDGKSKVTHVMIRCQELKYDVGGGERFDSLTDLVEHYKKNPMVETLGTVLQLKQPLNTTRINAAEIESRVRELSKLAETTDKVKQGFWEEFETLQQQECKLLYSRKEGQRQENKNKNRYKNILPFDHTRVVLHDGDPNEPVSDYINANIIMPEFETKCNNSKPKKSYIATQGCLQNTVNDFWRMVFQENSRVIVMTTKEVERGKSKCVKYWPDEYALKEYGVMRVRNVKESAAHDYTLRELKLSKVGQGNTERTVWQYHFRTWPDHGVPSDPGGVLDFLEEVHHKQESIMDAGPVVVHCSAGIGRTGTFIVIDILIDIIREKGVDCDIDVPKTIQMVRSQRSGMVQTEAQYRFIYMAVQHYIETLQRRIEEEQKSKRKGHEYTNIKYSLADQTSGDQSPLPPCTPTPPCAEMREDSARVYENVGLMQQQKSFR
Test: Measurement of SHP2 protein degradation in MV-4-11 cells (western blotting)
Assay type: cell-based
Parameters: endogenous in cells
Settings: 0.01 μM, harvested after 24 hours
Assign SHP2% degradation to each entry below.
Kindly report the value followed by its unit.

Prompt: Read off the recorded SHP2% degradation for Cc1ncsc1-c1ccc(CNC(=O)[C@@H]2C[C@@H](O)CN2C(=O)[C@@H](NC(=O)C2(F)CC2)C(C)(C)C)c(O[C@H]2CC[C@H](C(=O)N3CC(Nc4cccc(Sc5cnc(N6CCC(C)(CN)CC6)cn5)c4Cl)C3)CC2)c1
Completion: 83%

Prompt: Read off the recorded SHP2% degradation for CC(=O)N[C@H](C(=O)N1C[C@H](O)C[C@H]1C(=O)NCc1ccc(-c2scnc2C)cc1OC1CCN(C(=O)C2CCN(c3nccc(Sc4cnc(N5CCC(C)(CN)CC5)cn4)c3Cl)CC2)CC1)C(C)(C)C
Completion: 97.0%

Prompt: Read off the recorded SHP2% degradation for Cc1ncsc1-c1ccc(CNC(=O)[C@@H]2C[C@@H](O)CN2C(=O)[C@@H](NC(=O)C2(F)CC2)C(C)(C)C)c(OCCN2CCN(C(=O)CNc3cccc(Sc4cnc(N5CCC(C)(CN)CC5)cn4)c3Cl)CC2)c1
Completion: 42.9%
